Data provenance is patent US9255100B2.

# measured-on: N-terminally GST-tagged human full length recombinant Mps-1 kinase (Homo sapiens, UniProt P33981)
# Construct: N-terminally GST-tagged human full length recombinant Mps-1 kinase; purchased Invitrogen, Karslruhe, Germany PV4071
# Sequence (P33981 whole entry): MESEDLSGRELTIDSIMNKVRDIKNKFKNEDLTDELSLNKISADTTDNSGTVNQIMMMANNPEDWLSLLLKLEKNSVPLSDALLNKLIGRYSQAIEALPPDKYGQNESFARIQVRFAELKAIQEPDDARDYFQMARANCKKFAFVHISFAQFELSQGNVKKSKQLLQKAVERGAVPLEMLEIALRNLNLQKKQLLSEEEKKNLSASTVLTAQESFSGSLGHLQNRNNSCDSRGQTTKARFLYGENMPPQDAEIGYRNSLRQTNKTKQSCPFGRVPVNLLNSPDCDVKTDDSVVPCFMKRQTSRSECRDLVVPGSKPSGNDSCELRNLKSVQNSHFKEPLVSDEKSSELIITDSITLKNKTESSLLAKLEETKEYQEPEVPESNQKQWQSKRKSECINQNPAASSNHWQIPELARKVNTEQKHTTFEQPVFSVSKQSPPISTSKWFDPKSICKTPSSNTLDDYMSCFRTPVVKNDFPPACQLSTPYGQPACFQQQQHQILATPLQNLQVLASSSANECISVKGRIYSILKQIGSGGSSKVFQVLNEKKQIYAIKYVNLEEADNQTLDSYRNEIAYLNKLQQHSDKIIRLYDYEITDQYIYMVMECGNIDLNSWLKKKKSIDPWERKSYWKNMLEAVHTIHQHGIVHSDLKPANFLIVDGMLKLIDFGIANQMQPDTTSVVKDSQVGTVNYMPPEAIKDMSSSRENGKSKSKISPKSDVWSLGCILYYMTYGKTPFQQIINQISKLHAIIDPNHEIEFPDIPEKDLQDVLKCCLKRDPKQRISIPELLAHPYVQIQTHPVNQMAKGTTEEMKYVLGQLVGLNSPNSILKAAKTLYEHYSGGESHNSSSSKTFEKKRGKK
# protocol-details: Mps-1 kinase assay (TR-FRET)
# Format: biochemical
# cond: Mps1 IC50 [nM], 10 μM ATP, 1 μM peptide substrate, 60 min at 22° C.
Kindly supply the reported IC50 values for the records listed here.
Field format: number, assumed nM, no unit text.

Q: Look up and report measured IC50 for this entry: Cc1cc(-c2cnc3c(NCCC(F)(F)F)cc(Nc4ccncc4O)nn23)ccc1C(=O)NC1CC1
Result: 3.1

Q: Look up and report measured IC50 for this entry: CNC(=O)c1ccc(-c2cnc3c(NCC(C)C)cc(Cl)nn23)cc1Cl
Result: 327

Q: Look up and report measured IC50 for this entry: CNC(=O)c1ccc(-c2cnc3c(NCCN4CCOCC4)cc(Oc4ccccc4C)nn23)cc1C
Result: 4.3
